test: Half life in Sprague-Dawley rat hepatocytes at 2 uM by LC-MS/MS analysis; type: ADME, cell-based, Hepatocyte
Reported endpoint: half-life at 2 µM (min)

compound_smiles=CC(=O)NC[C@@H]1OC(=O)N2c3cc(F)c(N4CCSCC4)cc3OC[C@@H]12 reported_endpoint="half-life at 2 µM" unit_spec=min test_value=100

---

This section presents compounds with their documented Cmax values.
assay: Cmax in Balb/c mouse at 25 mg/kg, po by LC-MS/MS analysis; type: ADME, organism-based; set-up: route oral, dose 25 mg/kg; conditions: in vivo
Reported endpoint: Cmax (ng/mL)

compound_smiles=CC(=O)NC[C@@H]1OC(=O)N2c3cc(F)c(N4CC[S+]([O-])CC4)cc3OC[C@@H]12 test_value=1520
compound_smiles=CC(=O)NC[C@@H]1OC(=O)N2c3cc(F)c(N4CCS(=O)(=O)CC4)cc3OC[C@@H]12 test_value=118
compound_smiles=CC(=O)NC[C@@H]1OC(=O)N2c3cc(F)c(N4CCSCC4)cc3OC[C@@H]12 test_value=3000
